experiment: Solvent scope of N,N′-dialkylaldaramides (1%) or N,N′-dialkylpentaramides (1%): gelation/solubility behaviour in solvents; format: physicochemical; design: key: g = gelation; s = soluble; p = precipitates; c = crystallizes; ns = not soluble; v = viscous; g* = unstable gel, precipitates; cg = crystalline gel; details: 1% gelling agent; silicon oil
measured.endpoint: Gelation/solubility behaviour in silicon oil

INSERT INTO assay_data (molecule, endpoint_result) VALUES
  ('O=C(NC1CCCCCCCCCCC1)[C@@H](O)[C@@H](O)[C@H](O)[C@@H](O)C(=O)NC1CCCCCCCCCCC1 [Example 15, dicyclododecyl D-glucaramide]', 'g'),
  ('O=C(NC1CCCCCCCCCCC1)[C@@H](O)[C@H](O)[C@H](O)[C@@H](O)C(=O)NC1CCCCCCCCCCC1 [Example 17, dicyclododecyl galactaramide]', 'ns'),
  ('O=C(NC1CCCCC1)[C@@H](O)[C@@H](O)[C@H](O)[C@@H](O)C(=O)NC1CCCCCCCCCCC1', 'v'),
  ('CCCCCCCCCCCCNC(=O)[C@@H](O)[C@@H](O)[C@H](OC)[C@@H](O)C(=O)NCCCCCCCCCCCC [Example 21, 3-O-methyl-didodecyl D-glucaramide]', 'v');

----------
test: Solvent scope of N,N′-dialkylaldaramides (1%) or N,N′-dialkylpentaramides (1%): gelation/solubility behaviour in solvents; assay type: physicochemical; details: 1% gelling agent; 2-octanol
measured.endpoint: Gelation/solubility behaviour in 2-octanol

Example cases with answers are listed next.
INSERT INTO assay_data (molecule, endpoint_result) VALUES
  ('CCCCNC(=O)[C@@H](O)[C@@H](O)[C@H](O)[C@H](O)C(=O)NCCCC [Example 2, dibutyl D-mannaramide]', 'Ns'),
  ('CCCCCCCCCCCCNC(=O)[C@@H](O)[C@H](O)[C@H](O)[C@@H](O)C(=O)NCCCCCCCCCCCC [Example 14, didodecyl galactaramide]', 'ns'),
  ('CCCCNC(=O)[C@@H](O)[C@H](O)[C@H](O)[C@@H](O)C(=O)NCCCC [Example 3, dibutyl galactaramide]', 'ns'),
  ('CCCCCCCC/C=C\CCCCCCCCNC(=O)[C@@H](O)[C@@H](O)[C@H](O)[C@@H](O)C(=O)NCCCCCCCC/C=C\CCCCCCCC [Example 19, dioleyl D-glucaramide]', 'c'),
  ('O=C(NC1CCCCC1)[C@@H](O)[C@@H](O)[C@H](O)[C@@H](O)C(=O)NC1CCCCC1 [Example 5, dicyclohexyl D-glucaramide]', 'cg');

Attention now shifts to the item below.
IN: Assign Gelation/solubility behaviour in 2-octanol to the following record: CCCCCCCCCCCCNC(=O)[C@@H](O)[C@@H](O)[C@H](O)[C@@H](O)C(=O)NCCCCCCCCCCCC [Example 12, didodecyl D-glucaramide]
OUT: ns

----------
experiment: Solvent scope of N,N′-dialkylaldaramides (1%) or N,N′-dialkylpentaramides (1%): gelation/solubility behaviour in solvents; type: physicochemical; parameters: key: g = gelation; s = soluble; p = precipitates; c = crystallizes; ns = not soluble; v = viscous; g* = unstable gel, precipitates; cg = crystalline gel; details: 1% gelling agent; 1,2-dichloroethane
measured.endpoint: Gelation/solubility behaviour in 1,2-dichloroethane

Example cases with answers are listed next.
INSERT INTO assay_data (molecule, endpoint_result) VALUES
  ('O=C(NC1CCCCCCCCCCC1)[C@@H](O)[C@@H](O)[C@H](O)[C@H](O)C(=O)NC1CCCCCCCCCCC1 [Example 16, dicyclododecyl D-mannaramide]', 'c'),
  ('CCCCCCCCCCCCNC(=O)[C@@H](O)[C@H](O)[C@H](O)[C@@H](O)C(=O)NCCCCCCCCCCCC [Example 14, didodecyl galactaramide]', 'ns'),
  ('CO[C@@H]([C@H](O)[C@H](O)C(=O)NC1CCCCCCCCCCC1)[C@@H](O)C(=O)NC1CCCCCCCCCCC1 [Example 22, 3-O-methyl-dicyclododecyl D-glucaramide]', 'p'),
  ('CCCCNC(=O)[C@@H](O)[C@H](O)[C@H](O)[C@@H](O)C(=O)NCCCC [Example 3, dibutyl galactaramide]', 'ns'),
  ('CCCCCCCCNC(=O)[C@@H](O)[C@H](O)[C@H](O)[C@@H](O)C(=O)NCCCCCCCC [Example 10, dioctyl galactaramide]', 'ns');

Attention now shifts to the item below.
IN: Assign Gelation/solubility behaviour in 1,2-dichloroethane to the following record: CO[C@@H]([C@H](O)[C@H](O)C(=O)NC1CCCCC1)[C@@H](O)C(=O)NC1CCCCC1 [Example 20, 3-O-methyl-dicyclohexyl D-glucaramide]
OUT: c
